# System: TBK1 (Homo sapiens (Human))
# Test: TBK1 low ATP kinase assay (in vitro assay 1)
# Assay type: biochemical
# Measurement context: in vitro assay 1, read-out: TBK1 low ATP kinase assay IC50
Measured quantity: IC50 (nM)

> print(dat)
                      smiles.representation  reported.value
1  Cc1noc(-c2ccc3nc(Nc4cc(CN5CCN(c6cncc(Cl)n6)CC5)ccn4)[nH]c3c2)n1             450
2  O=C(C1CCC1)N1CCN(Cc2ccnc(Nc3nc4ccc(-c5ccnc(OCC6CC6)n5)cc4[nH]3)c2)CC1            9.54
3  Cc1cc(-c2ccc3nc(Nc4cc(CN5CCN(C(=O)OC(C)(C)C)CC5)ccn4)[nH]c3c2)ccn1             150

1 = CCNc1cc(-c2ccc3nc(Nc4cc(CN5CCN(C(=O)OC(C)(C)C)CC5)ccn4)[nH]c3c2)ncn1
2 = COc1ncccc1-c1ccc2nc(Nc3cc(CN4CCN(C(=O)CC5CC5)CC4)ccn3)[nH]c2c1
// query Which gives the smaller IC50 number: 1 or 2 ? Respond using the label that marks the chosen record.
// result 1

* * *

# System: TBK1 (Homo sapiens (Human), UniProt Q9UHD2)
# Sequence (Q9UHD2 whole entry): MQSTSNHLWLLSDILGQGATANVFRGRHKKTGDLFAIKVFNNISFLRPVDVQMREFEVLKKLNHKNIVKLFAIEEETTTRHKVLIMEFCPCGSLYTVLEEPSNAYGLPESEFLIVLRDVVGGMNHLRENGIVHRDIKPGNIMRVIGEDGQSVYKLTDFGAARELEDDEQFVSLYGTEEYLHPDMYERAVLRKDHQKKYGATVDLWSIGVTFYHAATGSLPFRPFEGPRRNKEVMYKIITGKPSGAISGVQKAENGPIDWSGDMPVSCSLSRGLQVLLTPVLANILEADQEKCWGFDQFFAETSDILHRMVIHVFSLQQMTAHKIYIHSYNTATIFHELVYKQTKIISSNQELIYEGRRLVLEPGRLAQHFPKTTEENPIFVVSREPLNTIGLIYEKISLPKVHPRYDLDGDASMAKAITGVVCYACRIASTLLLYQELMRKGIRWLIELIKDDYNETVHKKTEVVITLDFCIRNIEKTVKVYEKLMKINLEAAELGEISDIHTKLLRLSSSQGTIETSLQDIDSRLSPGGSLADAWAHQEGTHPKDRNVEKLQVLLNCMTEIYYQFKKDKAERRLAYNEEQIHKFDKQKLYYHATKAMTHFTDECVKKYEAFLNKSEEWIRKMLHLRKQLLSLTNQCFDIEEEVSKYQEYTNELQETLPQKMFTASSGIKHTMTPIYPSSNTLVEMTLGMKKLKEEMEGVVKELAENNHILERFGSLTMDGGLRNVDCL
# Test: TBK1 low ATP kinase assay (in vitro assay 1)
# Assay type: biochemical
# Measurement context: in vitro assay 1, read-out: TBK1 low ATP kinase assay IC50
pIC50: −log10 of the molar value.
Measured quantity: pIC50

> print(dat)
                                   molecule  measured.quantity  reported.value
1  COc1cnccc1-c1ccc2nc(Nc3cc(CN4CCN(C(=O)C5CC5(F)F)CC4)ccn3)[nH]c2c1 (racemic) [Example 04.08]              pIC50            7.86

A = CC(C)(C)OC(=O)N1CCN(Cc2ccnc(Nc3nc4ccc(-c5nc(C6CC6)no5)cc4[nH]3)c2)CC1 [Example 17.01]
B = CC(c1ccnc(Nc2nc3ccc(-c4cc(N5CCCC5)ncn4)cc3[nH]2)c1)N1CCN(C(=O)C2CC2(F)F)CC1 (single isomer, unassigned) [Example 117.05]
// query Hi, I'm comparing A with B and wondering which one has the bigger number for pIC50. Any idea? Respond using the label that marks the chosen record.
// result B

* * *

# System: TBK1 (Homo sapiens (Human))
# Test: TBK1 low ATP kinase assay (in vitro assay 1)
# Format: biochemical
# Measurement context: in vitro assay 1, read-out: TBK1 low ATP kinase assay IC50
pIC50: −log10 of the molar value.
Measured quantity: pIC50

A = CN(c1cc(-c2ccc3nc(Nc4cc(CN5CCN(C(=O)C6CC6)CC5)ccn4)[nH]c3c2)ncn1)C1CCC1
B = CC(c1ccnc(Nc2nc3ccc(-c4cnn(CC5CC5)c4)c(Cl)c3[nH]2)c1)N1CCN(C(=O)C2CC2)CC1 (single isomer, unassigned)
// query Hi, I'm comparing A with B and wondering which one has the bigger number for pIC50. Any idea? Respond using the label that marks the chosen record.
// result B

* * *

# System: TBK1 (Homo sapiens (Human), UniProt Q9UHD2)
# Test: TBK1 low ATP kinase assay (in vitro assay 1)
# Type: biochemical
# Measurement context: in vitro assay 1, read-out: TBK1 low ATP kinase assay IC50
Measured quantity: IC50 (µM)

Worked cases, IC50 given:
> print(dat)
                                   molecule                                    system  reported.value
1  CCOc1ncnc(-c2ccc3nc(Nc4cc(CN5CCN(C(=O)CC(F)(F)F)CC5)ccn4)[nH]c3c2)c1OC  TBK1 (Homo sapiens (Human), UniProt Q9UHD2)           0.035
2  CN(c1cc(-c2ccc3nc(Nc4cc(CN5CCN(C(=O)C6CC6)CC5)ccn4)[nH]c3c2)ncn1)C1CC1  TBK1 (Homo sapiens (Human), UniProt Q9UHD2)          0.0076
3  Cc1cccc(N2CCN(Cc3ccnc(Nc4nc5ccc(-c6nc(C)no6)cc5[nH]4)c3)CC2)c1  TBK1 (Homo sapiens (Human), UniProt Q9UHD2)            0.69
4  COc1cncnc1-c1ccc2nc(Nc3cc(CN4CCN(C(=O)N5CCCCC5)CC4)ccn3)[nH]c2c1  TBK1 (Homo sapiens (Human), UniProt Q9UHD2)          0.0479

A = COc1cncnc1-c1ccc2nc(Nc3cc(C(C)N4CCN(C(=O)C5CC5)CC4)ccn3)[nH]c2c1 (racemic) [Example 35.02.03]
B = CCN(CC)c1cc(-c2ccc3nc(Nc4cc(CN5CCN(C(=O)CC(F)(F)F)CC5)ccn4)[nH]c3c2)ncn1
// query Which gives the smaller IC50 number: A or B ? Respond using the label that marks the chosen record.
// result A
(A: 0.00629 µM, B: 0.015 µM)

Ref: patent US10894784B2
